Cited source for all entries: the supplement of paper PMC10307832

Form field: relative viability (one value per entry).
System: PC-14
method_notes: relative viability (nuclei count vs DMSO), 5 days (fraction); higher = more cells survive
assay_setup: first compound 0.005 µM

[
  {
    "compound": "Nc1ccn([C@@H]2O[C@H](CO)[C@@H](O)[C@@H]2O)c(=O)n1 [Cytarabine] + C[C@]1(O)C[C@@H](c2nc(-c3ccc4ccc(-c5ccccc5)nc4c3)c3c(N)nccn32)C1 [Linsitinib] (partner 1 µM)",
    "study_system": "PC-14",
    "relative viability": 0.967
  },
  {
    "compound": "COc1cc2nccc(Oc3ccc(NC(=O)Nc4cc(C)on4)c(Cl)c3)c2cc1OC [Tivozanib] + CCNC(=O)c1noc(-c2cc(C(C)C)c(O)cc2O)c1-c1ccc(CN2CCOCC2)cc1 [Luminespib] (partner 0.01 µM)",
    "study_system": "PC-14",
    "relative viability": 0.115
  },
  {
    "compound": "COc1cc2nccc(Oc3ccc(NC(=O)Nc4cc(C)on4)c(Cl)c3)c2cc1OC [Tivozanib] + CS(=O)(=O)CCNCc1ccc(-c2ccc3ncnc(Nc4ccc(OCc5cccc(F)c5)c(Cl)c4)c3c2)o1 [Lapatinib] (partner 2 µM)",
    "study_system": "PC-14",
    "relative viability": 0.245
  },
  {
    "compound": "Nc1ccn([C@@H]2O[C@H](CO)[C@@H](O)[C@@H]2O)c(=O)n1 [Cytarabine] + Cc1nc(Nc2ncc(C(=O)Nc3c(C)cccc3Cl)s2)cc(N2CCN(CCO)CC2)n1 [Dasatinib] (partner 0.075 µM)",
    "study_system": "PC-14",
    "relative viability": 0.232
  },
  {
    "compound": "Nc1ccn([C@@H]2O[C@H](CO)[C@@H](O)[C@@H]2O)c(=O)n1 [Cytarabine] + O=C(CCCCCCC(=O)Nc1ccccc1)NO [Vorinostat] (partner 1 µM)",
    "study_system": "PC-14",
    "relative viability": 0.519
  },
  {
    "compound": "Nc1ccn([C@@H]2O[C@H](CO)[C@@H](O)[C@@H]2O)c(=O)n1 [Cytarabine] + CC(=O)Nc1cccc(-n2c(=O)n(C3CC3)c(=O)c3c(Nc4ccc(I)cc4F)n(C)c(=O)c(C)c32)c1 [Trametinib] (partner 0.02 µM)",
    "study_system": "PC-14",
    "relative viability": 0.712
  },
  {
    "compound": "Nc1ccn([C@@H]2O[C@H](CO)[C@@H](O)[C@@H]2O)c(=O)n1 [Cytarabine] + CC(=O)c1c(C)c2cnc(Nc3ccc(N4CCNCC4)cn3)nc2n(C2CCCC2)c1=O [Palbociclib] (partner 0.5 µM)",
    "study_system": "PC-14",
    "relative viability": 0.432
  },
  {
    "compound": "COc1cc2nccc(Oc3ccc(NC(=O)Nc4cc(C)on4)c(Cl)c3)c2cc1OC [Tivozanib] + C[C@]1(O)C[C@@H](c2nc(-c3ccc4ccc(-c5ccccc5)nc4c3)c3c(N)nccn32)C1 [Linsitinib] (partner 1 µM)",
    "study_system": "PC-14",
    "relative viability": 0.939
  },
  {
    "compound": "Nc1ccn([C@@H]2O[C@H](CO)[C@@H](O)[C@@H]2O)c(=O)n1 [Cytarabine] + CC(C)C[C@H](NC(=O)[C@H](Cc1ccccc1)NC(=O)c1cnccn1)B(O)O [Bortezomib] (partner 0.002 µM)",
    "study_system": "PC-14",
    "relative viability": 0.872
  },
  {
    "compound": "Nc1ccn([C@@H]2O[C@H](CO)[C@@H](O)[C@@H]2O)c(=O)n1 [Cytarabine] + C[C@@H](Oc1cc(-c2cnn(C3CCNCC3)c2)cnc1N)c1c(Cl)ccc(F)c1Cl [Crizotinib] (partner 1 µM)",
    "study_system": "PC-14",
    "relative viability": 0.805
  },
  {
    "compound": "COc1cc2nccc(Oc3ccc(NC(=O)Nc4cc(C)on4)c(Cl)c3)c2cc1OC [Tivozanib] + Nc1nc2[nH]cc(CCc3ccc(C(=O)N[C@@H](CCC(=O)O)C(=O)O)cc3)c2c(=O)[nH]1 [Pemetrexed] (partner 0.2 µM)",
    "study_system": "PC-14",
    "relative viability": 0.124
  }
]

====

Tested on: NCI-H1944
method_notes: relative viability (nuclei count vs DMSO), 5 days (fraction); higher = more cells survive
assay_setup: first compound 0.5 µM

[
  {
    "compound": "COc1cc2nccc(Oc3ccc(NC(=O)Nc4cc(C)on4)c(Cl)c3)c2cc1OC [Tivozanib] + CC1(C)CCC(c2ccc(Cl)cc2)=C(CN2CCN(c3ccc(C(=O)NS(=O)(=O)c4ccc(N[C@H](CCN5CCOCC5)CSc5ccccc5)c(S(=O)(=O)C(F)(F)F)c4)cc3)CC2)C1 [Navitoclax] (partner 0.5 µM)",
    "relative viability": 1.1
  },
  {
    "compound": "COc1cc2nccc(Oc3ccc(NC(=O)Nc4cc(C)on4)c(Cl)c3)c2cc1OC [Tivozanib] + CCNC(=O)c1noc(-c2cc(C(C)C)c(O)cc2O)c1-c1ccc(CN2CCOCC2)cc1 [Luminespib] (partner 0.01 µM)",
    "relative viability": 0.818
  },
  {
    "compound": "COc1cc2nccc(Oc3ccc(NC(=O)Nc4cc(C)on4)c(Cl)c3)c2cc1OC [Tivozanib] + Cc1nc(NC(=O)N2CCC[C@H]2C(N)=O)sc1-c1ccnc(C(C)(C)C(F)(F)F)c1 [Alpelisib] (partner 2 µM)",
    "relative viability": 0.912
  },
  {
    "compound": "Nc1ccn([C@@H]2O[C@H](CO)[C@@H](O)[C@@H]2O)c(=O)n1 [Cytarabine] + CCNC(=O)c1noc(-c2cc(C(C)C)c(O)cc2O)c1-c1ccc(CN2CCOCC2)cc1 [Luminespib] (partner 0.01 µM)",
    "relative viability": 0.134
  },
  {
    "compound": "Nc1ccn([C@@H]2O[C@H](CO)[C@@H](O)[C@@H]2O)c(=O)n1 [Cytarabine] + C[C@]1(O)C[C@@H](c2nc(-c3ccc4ccc(-c5ccccc5)nc4c3)c3c(N)nccn32)C1 [Linsitinib] (partner 1 µM)",
    "relative viability": 0.195
  },
  {
    "compound": "COc1cc2nccc(Oc3ccc(NC(=O)Nc4cc(C)on4)c(Cl)c3)c2cc1OC [Tivozanib] + COc1cccc2cc(-c3nc([C@H]4CC[C@H](C(=O)O)CC4)n4ncnc(N)c34)[nH]c12 [OSI-027] (partner 0.5 µM)",
    "relative viability": 0.447
  },
  {
    "compound": "Nc1ccn([C@@H]2O[C@H](CO)[C@@H](O)[C@@H]2O)c(=O)n1 [Cytarabine] + Cc1nc(Nc2ncc(C(=O)Nc3c(C)cccc3Cl)s2)cc(N2CCN(CCO)CC2)n1 [Dasatinib] (partner 0.075 µM)",
    "relative viability": 0.0942
  },
  {
    "compound": "Nc1ccn([C@@H]2O[C@H](CO)[C@@H](O)[C@@H]2O)c(=O)n1 [Cytarabine] + O=C(c1cc(Cc2n[nH]c(=O)c3ccccc23)ccc1F)N1CCN(C(=O)C2CC2)CC1 [Olaparib] (partner 8 µM)",
    "relative viability": 0.156
  },
  {
    "compound": "COc1cc2nccc(Oc3ccc(NC(=O)Nc4cc(C)on4)c(Cl)c3)c2cc1OC [Tivozanib] + CC(=O)c1c(C)c2cnc(Nc3ccc(N4CCNCC4)cn3)nc2n(C2CCCC2)c1=O [Palbociclib] (partner 0.5 µM)",
    "relative viability": 0.324
  }
]

====

System: H3255
method_notes: relative viability (nuclei count vs DMSO), 5 days (fraction); higher = more cells survive
assay_setup: first compound 0.01581 µM

[
  {
    "compound": "COc1cc2nccc(Oc3ccc(NC(=O)Nc4cc(C)on4)c(Cl)c3)c2cc1OC [Tivozanib] + O=C(c1cc(Cc2n[nH]c(=O)c3ccccc23)ccc1F)N1CCN(C(=O)C2CC2)CC1 [Olaparib] (partner 8 µM)",
    "relative viability": 0.56
  },
  {
    "compound": "COc1cc2nccc(Oc3ccc(NC(=O)Nc4cc(C)on4)c(Cl)c3)c2cc1OC [Tivozanib] + Cc1nc(Nc2ncc(C(=O)Nc3c(C)cccc3Cl)s2)cc(N2CCN(CCO)CC2)n1 [Dasatinib] (partner 0.075 µM)",
    "relative viability": 0.432
  },
  {
    "compound": "Nc1ccn([C@@H]2O[C@H](CO)[C@@H](O)[C@@H]2O)c(=O)n1 [Cytarabine] + NC(=O)Nc1cc(-c2cccc(F)c2)sc1C(=O)N[C@H]1CCCNC1 [AZD7762] (partner 0.2 µM)",
    "relative viability": 0.812
  },
  {
    "compound": "Nc1ccn([C@@H]2O[C@H](CO)[C@@H](O)[C@@H]2O)c(=O)n1 [Cytarabine] + N=C(N)NC(=N)NCCc1ccccc1 [Phenformin] (partner 250 µM)",
    "relative viability": 0.336
  },
  {
    "compound": "Nc1ccn([C@@H]2O[C@H](CO)[C@@H](O)[C@@H]2O)c(=O)n1 [Cytarabine] + C[C@@H](Oc1cc(-c2cnn(C3CCNCC3)c2)cnc1N)c1c(Cl)ccc(F)c1Cl [Crizotinib] (partner 1 µM)",
    "relative viability": 0.828
  },
  {
    "compound": "COc1cc2nccc(Oc3ccc(NC(=O)Nc4cc(C)on4)c(Cl)c3)c2cc1OC [Tivozanib] + N=C(N)NC(=N)NCCc1ccccc1 [Phenformin] (partner 250 µM)",
    "relative viability": 0.333
  }
]
